// provenance: ChEMBL document CHEMBL6103569

Assay: Half life in male BALB/c mouse at 10 mg/kg, iv measured upto 24 hrs by LC-MS/MS analysis
Format: ADME, organism-based
Conditions: in vivo
readout: half-life (min)
Numbers only, in min.

Memo: CN(C)CC1C(=O)O[C@H]2[C@H]1CC/C(CC(F)(F)F)=C\CC[C@@]1(C)O[C@@H]21.O=C(O)/C=C/C(=O)O (stereo partly specified) , reported half-life: 33.2

---

Experiment: Volume of distribution in male BALB/c mouse at 10 mg/kg, iv measured upto 24 hrs by LC-MS/MS analysis
Type: ADME, organism-based
Conditions: in vivo
readout: Vd (L/kg)
Give bare numbers, in L/kg.

For record CN(C)CC1C(=O)O[C@H]2[C@H]1CC/C(CC(F)(F)F)=C\CC[C@@]1(C)O[C@@H]21.O=C(O)/C=C/C(=O)O (stereo partly specified) the listed Vd is 12.1

---

Give measured pIC50 for each item. Keep answers brief.
Tested on: PANC-1
Assay: Antiproliferative activity against human PANC-1 cells assessed as inhibition of cell growth incubated for 72 hrs by MTT assay
Format: functional, cell-based
Settings: panc-1
Answers are plain numbers, as −log10 of the molar value.

Some compounds with known pIC50 results, for comparison:
- compound: "C[C@@]12CC/C=C(/CC(F)(F)F)CC[C@H]3C(CN4CCC(O)CC4)C(=O)O[C@@H]3[C@@H]1O2 (stereo partly specified)"
  pIC50: 5.27
- compound: "C[C@@]12CC/C=C(/CC(F)(F)F)CC[C@H]3C(CN4CC[C@@H](O)C4)C(=O)O[C@@H]3[C@@H]1O2 (stereo partly specified)"
  pIC50: 5.49
- compound: "CN1CCN(CC2C(=O)O[C@H]3[C@H]2CC/C(CC(F)(F)F)=C\\CC[C@@]2(C)O[C@@H]32)CC1 (stereo partly specified)"
  pIC50: 4.90

The following compounds each have a reported value; give each one's pIC50.
1. CN(C)CC1C(=O)O[C@H]2[C@H]1CC/C(CC(F)(F)F)=C\CC[C@@]1(C)O[C@@H]21.O=C(O)/C=C/C(=O)O (stereo partly specified)
2. CN(C)CC1C(=O)O[C@H]2[C@H]1CC/C(CC(F)(F)F)=C\CC[C@@]1(C)O[C@@H]21 (stereo partly specified)
3. C[C@@]12CC/C=C(/CC(F)(F)F)CC[C@H]3C(CN4CCCC4)C(=O)O[C@@H]3[C@@H]1O2 (stereo partly specified)

1. 5.38
2. 5.36
3. 5.28

---

Assay: Half life in male BALB/c mouse at 50 mg/kg, po measured upto 24 hrs by LC-MS/MS analysis
Assay type: ADME, organism-based
Settings: in vivo
readout: half-life (min)
Numbers only, in min.

Consider CN(C)CC1C(=O)O[C@H]2[C@H]1CC/C(CC(F)(F)F)=C\CC[C@@]1(C)O[C@@H]21.O=C(O)/C=C/C(=O)O (stereo partly specified) . Its measured half-life is 47.9

---

Assay: MRT (0 to t) in male BALB/c mouse at 50 mg/kg, po measured upto 24 hrs by LC-MS/MS analysis
Assay type: ADME, organism-based
Settings: in vivo
readout: MRT last at 24 h (min)
Give bare numbers, in min.

// field: MRT last at 24 h; key: CN(C)CC1C(=O)O[C@H]2[C@H]1CC/C(CC(F)(F)F)=C\CC[C@@]1(C)O[C@@H]21.O=C(O)/C=C/C(=O)O (stereo partly specified) ; value = 49.7
